# Tested on: RPMI-8226
# METHOD NOTES: NCI tumour cell line growth inhibition, 48 h
The source made the active and inactive calls. Cut-off read from the data, not from the text of the source: active = GI50 up to about 1.1 µM and inactive = higher.
The reply should be one of these categories: 1 (yes) (active), 0 (no) (inactive)

- MOLECULE: "C=C1c2nc3ccccc3n2C=C(c2ccc(Cl)cc2)N1c1ccc(OC)cc1"
  CLASS NAME: "0 (no)"
- MOLECULE: "CN1CCN(c2nc3c(c(=O)n(C)c(=O)n3C)n2C)CC1"
  CLASS NAME: "0 (no)"
- MOLECULE: "CCCCCCOP(=O)(OCCCCCC)C(NC(=O)OCC)(C(F)(F)F)C(F)(F)F"
  CLASS NAME: "0 (no)"
- MOLECULE: "COC1/C=C(C)/C=C/C(C)/C=C/C(=O)OC(/C(C)=C/C=C(\\C)CNC(=O)[C@H](CO)NC=O)C(C)/C=C/C=C/C(OC)CC/C=C(C)/C=C/C1 (stereo not given in full)"
  CLASS NAME: "1 (yes)"
- MOLECULE: "CN(C)CCC1(C2=CCCC2)CC/C(=C\\c2ccccc2)C1=O (stereo not given)"
  CLASS NAME: "0 (no)"
- MOLECULE: "CCOC(=O)CCC(NC(=O)c1ccc(NCc2ccc3nc(-c4ccccc4)c(Cl)nc3c2)cc1)C(=O)OCC (stereo not given)"
  CLASS NAME: "0 (no)"

Q: Record request — test call for CCOC(=O)/C(=C/c1ccc(N(C)C)cc1)N(CC)CC
Ans: 0 (no)

Q: Record request — test call for O=C1NC2C(=CC(O)C(O)C2O)c2cc3c(cc21)OCO3 (stereo not given)
Ans: 1 (yes)

Q: Name the outcome recorded for CC1CC/C(=C\c2ccc(F)cc2)C2=C1C(c1ccc(F)cc1)n1c(s/c(=C\c3ccc(Cl)cc3)c1=O)=N2 (stereo not given) in the assay.
Ans: 0 (no)

Q: Please state the recorded outcome for this molecule: O=C(O)c1cccc(C(=O)O)c1[S+]([O-])Cc1ccccc1 (stereo not given)
Ans: 0 (no)

----------
# Test system: SK-MEL-5
# METHOD NOTES: NCI tumour cell line growth inhibition, 48 h
Calls of active or inactive are those of the source. No stated cut-off is given here; in the data, active = GI50 up to about 1.1 µM and inactive = higher.
Choose the fitting class; nothing outside active, inactive is accepted.

Observe how each entry below is paired with its result.
- COMPOUND: "CC12CCC3C(CCC4=CC(O)CCC43C=O)C1(O)CCC2c1ccc(=O)oc1 (stereo unspecified)"
  CLASS NAME: "active"
- COMPOUND: "CN(C)/C=N/CC(O)c1ccccc1 (stereo unspecified)"
  CLASS NAME: "inactive"
- COMPOUND: "[N-]=[N+]=C1N=CN=C1c1nc[nH]n1"
  CLASS NAME: "inactive"
- COMPOUND: "CCN1CCCc2cc3c(C(F)(F)F)cc(=O)oc3cc21"
  CLASS NAME: "inactive"
- COMPOUND: "NC(=O)c1oc([N+](=O)[O-])c(-c2ccccc2)c1-c1ccccc1"
  CLASS NAME: "active"

Next item in the queue.
Q: Write down the call the test reported for this compound. Item: O=C(c1c(F)c(F)c(F)c(F)c1F)n1c(=S)n(C(=O)c2c(F)c(F)c(F)c(F)c2F)c2ccccc21
Ans: inactive

----------
# Test system: HOP-92
# METHOD NOTES: NCI tumour cell line growth inhibition, 48 h
Activity calls are given as the source filed them. No stated cut-off is given here; in the data, active = GI50 up to about 1.1 µM and inactive = higher.
Can you answer with just one of these options? t for active, f for inactive

Answered cases to consult:
- COMPOUND: "O=C(Nc1nc2ncn(CCO)c2c(=O)[nH]1)c1ccccc1"
  CLASS NAME: "f"
- COMPOUND: "O=C(CC/C(C/C(=N/O)c1ccc(F)cc1)=N/O)N(Cc1ccccc1)Cc1ccccc1"
  CLASS NAME: "f"
- COMPOUND: "O=C1c2ccccc2C(=O)c2sc(Nc3ccc([N+](=O)[O-])cc3)nc21"
  CLASS NAME: "f"
- COMPOUND: "CC1(C)N=C(N)N=C(N)N1c1ccc(CCCCc2ccc(S(=O)(=O)F)cc2Cl)c(Cl)c1"
  CLASS NAME: "f"
- COMPOUND: "C=C1C(=O)OC2C1CCC(=C)C1CC(O)C(=C)C12 (stereo unspecified)"
  CLASS NAME: "f"

Q: # lookup: test call for O=C(c1ccccc1)c1c(-c2ccccc2)[nH]n(-c2ccc([N+](=O)[O-])cc2)c(=O)c1=O
Ans: f

Entry source: ChEMBL document CHEMBL1201862
